# assay_name: physchem
# details: octanol/water, pH 7.4
Assignment: determine reported logD at 5 h for the given compounds.
Give bare numbers.

Recorded results for 3 compounds are shown here.
- smiles_str: "CC(=O)Nc1cc(Nc2cc(Nc3cn(CCN(C)C)cn3)n3ncc(C#N)c3n2)ccc1C"
  logD at 5 h: 1.5
- smiles_str: "CC(=O)Nc1cc(Nc2cc(NC3CCC3)n3ncc(C#N)c3n2)c(F)cc1C"
  logD at 5 h: 3
- smiles_str: "CC(=O)Nc1cc(Nc2cc(NC3COC3)n3ncc(C#N)c3n2)c(F)cc1C"
  logD at 5 h: 1.5

Request: # lookup: logD at 5 h of CC(=O)Nc1cc(Nc2cc(NC3COC3)n3ncc(C#N)c3n2)c(F)cc1C1CC1
Response: 2.1

###

# System: MDR1
# assay_name: Efflux ratio of apparent permeability across apical to basolateral side in porcine LLC cells expressing MDR1
# Assay type: ADME, cell-based, Sus scrofa
# details: pig, LLC-PK1
endpoint: efflux ratio
One number for each entry.

Request: # lookup: efflux ratio of CC(=O)Nc1cc(Nc2cc(Nc3ccn(CCN4CCCC4)n3)n3ncc(C#N)c3n2)ccc1C
Response: 100

###

Assignment: determine reported microsomal CLint for the given molecules.
# assay_name: Intrinsic clearance in rat liver microsomes
# Type: ADME, Microsome
# details: read-out: CLH
Give bare numbers, in µL/min/mg.

- smiles_str: "CC(=O)Nc1cc(Nc2cc(NC3COC3)n3ncc(C#N)c3n2)c(F)cc1C"
  readout_units: "µL/min/mg"
  microsomal CLint: 6

For each of the molecules below, state microsomal CLint.
1. CC(=O)Nc1cc(Nc2cc(Nc3ccn(CCN4CCCC4)n3)n3ncc(C#N)c3n2)ccc1C
2. CC(=O)Nc1cc(Nc2cc(NC3CC3)n3ncc(C#N)c3n2)ccc1Cl
3. CC(=O)Nc1cc(Nc2cc(NC3CC3)n3ncc(C#N)c3n2)ccc1C1CC1
4. CC(=O)Nc1cc(Nc2cc(Nc3cn(CCN(C)C)cn3)n3ncc(C#N)c3n2)ccc1C
5. CC(=O)Nc1cc(Nc2cc(Nc3cn(CCN4CCOCC4)cn3)n3ncc(C#N)c3n2)ccc1C

Response:
1: 65; 2: 22; 3: 39; 4: 25; 5: 63

###

# assay_name: Inhibition of casein kinase-2 (unknown origin)
# Set-up: species or system Homo sapiens
endpoint: IC50 (µM)
One number for each entry, in µM.

Request: # lookup: IC50 of CC(=O)Nc1cc(Nc2cc(NC3CC3)n3nccc3n2)ccc1C
Response: 0.27

###

# assay_name: Cmax in po dosed rat
# Format: ADME, organism-based
# Design: route oral
# details: in vivo
Assignment: determine reported Cmax for the given compounds.

Recorded results for 2 compounds are shown here.
- smiles_str: "CC(=O)Nc1cc(Nc2cc(Nc3ccn(CCN4CCOCC4)n3)n3ncc(C#N)c3n2)ccc1C"
  endpoint: "Cmax"
  assay_result: "< 100 nM"
- smiles_str: "CC(=O)Nc1cc(Nc2cc(Nc3ccn(CCN4CCCC4)n3)n3ncc(C#N)c3n2)ccc1C"
  endpoint: "Cmax"
  assay_result: "< 100 nM"

For each of the compounds below, state Cmax.
1. CC(=O)Nc1cc(Nc2cc(NC3COC3)n3ncc(C#N)c3n2)c(F)cc1C1CC1
2. CC(=O)Nc1cc(Nc2cc(Nc3cn(CCN(C)C)cn3)n3ncc(C#N)c3n2)ccc1C

Response:
["< 1000 nM", "< 100 nM"]

###

# assay_name: Fraction unbound in human plasma at 10 uM by equilibrium dialysis method
# Assay type: ADME, cell-free
endpoint: fraction unbound at 10 µM
Answers are plain numbers.

Recorded results for 6 compounds are shown here.
- smiles_str: "CC(=O)Nc1cc(Nc2cc(NC3CC3)n3ncc(C#N)c3n2)cnc1C"
  fraction unbound at 10 µM: 0.15
- smiles_str: "CC(=O)Nc1cc(Nc2cc(NC3CC3)n3ncc(C#N)c3n2)c(F)cc1C1CC1"
  fraction unbound at 10 µM: 0.096
- smiles_str: "CC(=O)Nc1cc(Nc2cc(NC3CC3)n3ncc(C#N)c3n2)c(F)cc1C"
  fraction unbound at 10 µM: 0.13
- smiles_str: "CC(=O)Nc1cc(Nc2cc(Nc3cn(C)cn3)n3ncc(C#N)c3n2)ccc1C"
  fraction unbound at 10 µM: 0.21
- smiles_str: "CC(=O)Nc1cc(Nc2cc(NC3COC3)n3ncc(C#N)c3n2)ccc1C1CC1"
  fraction unbound at 10 µM: 0.2
- smiles_str: "CC(=O)Nc1cc(Nc2cc(Nc3ccn(C)n3)n3ncc(C#N)c3n2)ccc1C"
  fraction unbound at 10 µM: 0.12

Request: # lookup: fraction unbound at 10 µM of CC(=O)Nc1cc(Nc2cc(NC3COC3)n3ncc(C#N)c3n2)ccc1Cl
Response: 0.12

###

Assignment: determine reported solubility at 24 h for the given molecules.
# assay_name: Aqueous solubility of the compound in phosphate buffer at pH 7.4 after 24 hrs
# Type: physicochemical
One number for each entry, in µM.

Recorded results for 3 molecules are shown here.
- smiles_str: "CC(=O)Nc1cc(Nc2cc(NC3CCC3)n3ncc(C#N)c3n2)c(F)cc1C"
  endpoint: "solubility at 24 h"
  assay_result: 5
- smiles_str: "CC(=O)Nc1cc(Nc2cc(NC3CC3)n3ncc(C#N)c3n2)cnc1C"
  endpoint: "solubility at 24 h"
  assay_result: 18
- smiles_str: "CC(=O)Nc1cc(Nc2cc(NC3COC3)n3ncc(C#N)c3n2)ccc1Cl"
  endpoint: "solubility at 24 h"
  assay_result: 23

Request: # lookup: solubility at 24 h of CC(=O)Nc1cc(Nc2cc(NC3COC3)n3ncc(C#N)c3n2)ccc1C
Response: 13

###

# assay_name: physchem
# details: octanol/water, pH 7.4
endpoint: logD at 5 h
Numbers only.

Recorded results for 6 molecules are shown here.
- smiles_str: "CC(=O)Nc1cc(Nc2cc(Nc3cn(CCO)cn3)n3ncc(C#N)c3n2)ccc1C"
  logD at 5 h: 1.6
- smiles_str: "CC(=O)Nc1cc(Nc2cc(NC3CC3)n3ncc(C#N)c3n2)ccc1C1CC1"
  logD at 5 h: 3.1
- smiles_str: "CC(=O)Nc1cc(Nc2cc(NC3COC3)n3ncc(C#N)c3n2)ccc1C"
  logD at 5 h: 1.6
- smiles_str: "CC(=O)Nc1cc(Nc2cc(NC3CC3)n3ncc(C#N)c3n2)ncc1C"
  logD at 5 h: 2.1
- smiles_str: "CC(=O)Nc1cc(Nc2cc(NC3COC3)n3ncc(C#N)c3n2)ccc1Cl"
  logD at 5 h: 2.2
- smiles_str: "CC(=O)Nc1cc(Nc2cc(Nc3ccn(CCN(C)C)n3)n3ncc(C#N)c3n2)ccc1C"
  logD at 5 h: 2.3

For each of the molecules below, state logD at 5 h.
1. CC(=O)Nc1cc(Nc2cc(Nc3cn(CCN4CCOCC4)cn3)n3ncc(C#N)c3n2)ccc1C
2. CC(=O)Nc1cc(Nc2cc(NC3CC3)n3ncc(C#N)c3n2)c(F)cc1C1CC1
3. CC(=O)Nc1cc(Nc2cc(NC3CC3)n3ncc(C#N)c3n2)c(F)cc1C
4. CC(=O)Nc1cc(Nc2cc(NC3CC3)n3ncc(C#N)c3n2)ccc1C

Response:
1. 1.4
2. 2.8
3. 2.3
4. 2.4

###

# assay_name: Aqueous solubility of the compound in phosphate buffer at pH 7.4 after 24 hrs
# Assay type: physicochemical
endpoint: solubility at 24 h

- smiles_str: "CC(=O)Nc1cc(Nc2cc(NC3CC3)n3ncc(C#N)c3n2)c(F)cc1C1CC1"
  endpoint: "solubility at 24 h"
  assay_result: "7 µM"

For each of the molecules below, state solubility at 24 h.
1. CC(=O)Nc1cc(Nc2cc(NC3CC3)n3ncc(C#N)c3n2)ccc1C
2. CC(=O)Nc1cc(Nc2cc(Nc3cn(CCO)cn3)n3ncc(C#N)c3n2)ccc1C
3. CC(=O)Nc1cc(Nc2cc(NC3COC3)n3ncc(C#N)c3n2)c(F)cc1C
4. CC(=O)N1CCc2ccc(Nc3cc(NC4CC4)n4ncc(C#N)c4n3)cc21
5. CC(=O)Nc1cc(Nc2cc(NC3CC3)n3ncc(C#N)c3n2)ncc1C

Response:
8 µM
83 µM
22 µM
4 µM
7 µM

For each of the molecules below, state solubility at 24 h.
1. CC(=O)Nc1cc(Nc2cc(NC3CC3)n3ncc(C#N)c3n2)ccc1C(C)C
2. CC(=O)Nc1cc(Nc2cc(Nc3cn(CCN4CCOCC4)cn3)n3ncc(C#N)c3n2)ccc1C
3. CC(=O)Nc1cc(Nc2cc(Nc3ccn(CCN4CCOCC4)n3)n3ncc(C#N)c3n2)ccc1C

Response:
1. < 1 µM
2. 120 µM
3. 10 µM

###

# target_of_assay: Voltage-gated inwardly rectifying potassium channel KCNH2 (Homo sapiens)
# Sequence (Q12809 whole entry): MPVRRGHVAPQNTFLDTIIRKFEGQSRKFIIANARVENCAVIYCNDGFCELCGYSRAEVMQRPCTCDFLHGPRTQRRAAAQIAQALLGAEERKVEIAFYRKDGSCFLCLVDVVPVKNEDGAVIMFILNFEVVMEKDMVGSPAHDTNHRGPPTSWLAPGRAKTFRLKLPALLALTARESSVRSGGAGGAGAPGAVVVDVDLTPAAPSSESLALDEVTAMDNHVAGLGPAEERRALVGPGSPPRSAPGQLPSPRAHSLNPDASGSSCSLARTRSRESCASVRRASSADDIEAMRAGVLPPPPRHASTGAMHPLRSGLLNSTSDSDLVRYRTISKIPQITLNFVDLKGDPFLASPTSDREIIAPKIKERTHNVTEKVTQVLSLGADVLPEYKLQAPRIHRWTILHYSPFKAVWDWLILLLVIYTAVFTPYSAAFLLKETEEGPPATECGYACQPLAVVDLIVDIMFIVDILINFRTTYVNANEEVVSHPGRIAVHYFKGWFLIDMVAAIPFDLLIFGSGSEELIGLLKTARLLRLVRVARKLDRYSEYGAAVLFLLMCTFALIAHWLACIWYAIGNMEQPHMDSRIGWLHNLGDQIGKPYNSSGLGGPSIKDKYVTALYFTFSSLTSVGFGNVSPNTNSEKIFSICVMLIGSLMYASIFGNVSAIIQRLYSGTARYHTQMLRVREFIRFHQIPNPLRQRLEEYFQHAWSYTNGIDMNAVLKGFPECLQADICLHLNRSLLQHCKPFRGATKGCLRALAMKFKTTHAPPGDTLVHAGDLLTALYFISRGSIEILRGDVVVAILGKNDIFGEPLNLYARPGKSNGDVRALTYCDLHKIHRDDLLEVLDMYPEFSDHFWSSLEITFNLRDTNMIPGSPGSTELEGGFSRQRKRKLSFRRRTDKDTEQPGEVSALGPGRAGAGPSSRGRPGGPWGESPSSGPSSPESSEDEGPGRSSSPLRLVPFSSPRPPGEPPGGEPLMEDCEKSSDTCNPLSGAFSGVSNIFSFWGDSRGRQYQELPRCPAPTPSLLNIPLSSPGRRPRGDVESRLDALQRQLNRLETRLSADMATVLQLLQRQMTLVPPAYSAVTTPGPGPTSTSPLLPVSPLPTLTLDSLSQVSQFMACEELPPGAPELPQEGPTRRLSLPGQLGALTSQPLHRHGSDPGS
pIC50: −log10 of the molar value.
endpoint: pIC50

Recorded results for 2 compounds are shown here.
- smiles_str: "CC(=O)Nc1cc(Nc2cc(NC3COC3)n3ncc(C#N)c3n2)ccc1C1CC1"
  target_of_assay: "Voltage-gated inwardly rectifying potassium channel KCNH2 (Homo sapiens)"
  pIC50: "< 4.48"
- smiles_str: "CC(=O)Nc1cc(Nc2cc(NC3COC3)n3ncc(C#N)c3n2)c(F)cc1C"
  target_of_assay: "Voltage-gated inwardly rectifying potassium channel KCNH2 (Homo sapiens)"
  pIC50: "< 4.48"

Query compound follows.
Request: # lookup: pIC50 of CC(=O)Nc1cc(Nc2cc(NC3CC3)n3ncc(C#N)c3n2)ccc1C(C)C
Response: < 4.48
